# EXPERIMENT_NOTES: Toxicity against human SF268 cells assessed as growth inhibition at 10 uM
# Format: cell-based
# RECORDED_CONDITIONS: SF-268 cells, read-out: GI
QUANTITY_NAME: inhibition at 10 µM (%)
Field: numeric (%). Do not append units.

Worked cases, answers included:
Enquiry: What value of measured inhibition at 10 µM is listed for "CCOC(=O)NNc1[nH]c(-c2ccc(OC)cc2)cc1C#N" ?
Return: 0

Enquiry: What value of measured inhibition at 10 µM is listed for "COC(=O)c1cc(-c2ccc(OC)cc2)[nH]c1NNC(C)=O" ?
Return: 0

Enquiry: What value of measured inhibition at 10 µM is listed for "CCC(=O)NNc1[nH]c(-c2ccc(OC)cc2)cc1C#N" ?
Return: 2.1

Let us move to another entry and its inhibition at 10 µM.
Enquiry: What value of measured inhibition at 10 µM is listed for "COc1ccc(-c2cc(C#N)c(NNC(C)=O)[nH]2)cc1" ?
Return: 0

====

# Tested on: Candida parapsilosis
# EXPERIMENT_NOTES: Antimicrobial activity against Candida parapsilosis after 72 hrs by broth microdilution method
# Format: functional
# RECORDED_CONDITIONS: Lodderomyces parapsilosis
Listed here: items and their measured MFC.
Field: numeric (µg/mL). Do not append units.

Enquiry: What value of measured MFC is listed for "COc1ccc(-c2cc(C#N)c(NNC(C)=O)[nH]2)cc1" ?
Return: 6.25

Continuing:
Enquiry: What value of measured MFC is listed for "COCCC(=O)NNc1[nH]c(-c2ccc(OC)cc2)cc1C(=O)OC" ?
Return: 12.5

Enquiry: What value of measured MFC is listed for "CCOC(=O)c1cc(-c2ccccc2)[nH]c1NNC(C)=O" ?
Return: 100

Enquiry: What value of measured MFC is listed for "CCOC(=O)NNc1[nH]c(-c2ccccc2)cc1C(=O)OCC" ?
Return: 12.5

Enquiry: What value of measured MFC is listed for "COCCC(=O)NNc1[nH]c(-c2ccc(OC)cc2)cc1C#N" ?
Return: 12.5

Enquiry: What value of measured MFC is listed for "CCC(=O)NNc1[nH]c(-c2ccc(OC)cc2)cc1C#N" ?
Return: 12.5

Enquiry: What value of measured MFC is listed for "COC(=O)c1cc(-c2ccccc2)[nH]c1NNC(C)=O" ?
Return: 25

Enquiry: What value of measured MFC is listed for "CCOC(=O)c1cc(-c2ccccc2)[nH]c1NNC(=O)C(C)C" ?
Return: 100

Enquiry: What value of measured MFC is listed for "CCC(=O)NNc1[nH]c(-c2ccc(OC)cc2)cc1C(=O)OC" ?
Return: 12.5

====

# EXPERIMENT_NOTES: Toxicity against human MCF7 cells assessed as growth inhibition at 10 uM
# Assay type: cell-based
# RECORDED_CONDITIONS: read-out: GI
QUANTITY_NAME: inhibition at 10 µM

Worked cases, answers included:
Enquiry: What value of measured inhibition at 10 µM is listed for "COc1ccc(-c2cc(C#N)c(NNC(C)=O)[nH]2)cc1" ?
Return: 0%

Enquiry: What value of measured inhibition at 10 µM is listed for "COC(=O)c1cc(-c2ccc(OC)cc2)[nH]c1NNC(C)=O" ?
Return: 0%

Continuing:
Enquiry: What value of measured inhibition at 10 µM is listed for "CCOC(=O)NNc1[nH]c(-c2ccc(OC)cc2)cc1C#N" ?
Return: 0.9%

Enquiry: What value of measured inhibition at 10 µM is listed for "CCC(=O)NNc1[nH]c(-c2ccc(OC)cc2)cc1C#N" ?
Return: 4.6%

====

# Test system: Candida parapsilosis
# EXPERIMENT_NOTES: Antimicrobial activity against Candida parapsilosis by broth microdilution method
# Assay type: functional
# RECORDED_CONDITIONS: Lodderomyces parapsilosis
QUANTITY_NAME: MIC (µg/mL)
Field: numeric (µg/mL). Do not append units.

Worked cases, answers included:
Enquiry: GET /values?readout=MIC&system=Candida parapsilosis&item= "COC(=O)c1cc(-c2ccc(OC)cc2)[nH]c1NNC(C)=O"
Return: 3.12

Enquiry: GET /values?readout=MIC&system=Candida parapsilosis&item= "CCOC(=O)NNc1[nH]c(-c2ccc(Cl)cc2)cc1C(=O)OCC"
Return: 12.5

Enquiry: GET /values?readout=MIC&system=Candida parapsilosis&item= "COCC(=O)NNc1[nH]c(-c2ccc(OC)cc2)cc1C#N"
Return: 6.25

Enquiry: GET /values?readout=MIC&system=Candida parapsilosis&item= "CCOC(=O)c1cc(-c2ccccc2)[nH]c1NNC(=O)CCOC"
Return: 6.25

Enquiry: GET /values?readout=MIC&system=Candida parapsilosis&item= "COCCC(=O)NNc1[nH]c(-c2ccc(OC)cc2)cc1C(=O)OC"
Return: 6.25

Continuing:
Enquiry: GET /values?readout=MIC&system=Candida parapsilosis&item= "CCOC(=O)c1cc(-c2ccc(OC)cc2)[nH]c1NNC(=O)CCOC"
Return: 25

Enquiry: GET /values?readout=MIC&system=Candida parapsilosis&item= "COCCC(=O)NNc1[nH]c(-c2ccccc2)cc1C#N"
Return: 6.25

Enquiry: GET /values?readout=MIC&system=Candida parapsilosis&item= "CCOC(=O)c1cc(-c2ccc(OC)cc2)[nH]c1NNC(C)=O"
Return: 50

====

# EXPERIMENT_NOTES: Toxicity against human H460 cells assessed as growth inhibition at 10 uM
# Assay type: cell-based
# RECORDED_CONDITIONS: NCI-H460 cells, read-out: GI
Listed here: items and their measured inhibition at 10 µM.
Field: numeric (%). Do not append units.

Enquiry: What value of measured inhibition at 10 µM is listed for "COc1ccc(-c2cc(C#N)c(NNC(C)=O)[nH]2)cc1" ?
Return: 0

Enquiry: What value of measured inhibition at 10 µM is listed for "CCOC(=O)NNc1[nH]c(-c2ccc(OC)cc2)cc1C#N" ?
Return: 31

Enquiry: What value of measured inhibition at 10 µM is listed for "COC(=O)c1cc(-c2ccc(OC)cc2)[nH]c1NNC(C)=O" ?
Return: 0

Let us move to another entry and its inhibition at 10 µM.
Enquiry: What value of measured inhibition at 10 µM is listed for "CCC(=O)NNc1[nH]c(-c2ccc(OC)cc2)cc1C#N" ?
Return: 0

====

# System: Pichia kudriavzevii
# EXPERIMENT_NOTES: Antimicrobial activity against Candida krusei after 72 hrs by broth microdilution method
# Assay type: functional
Listed here: items and their measured MFC.
Field: numeric (µg/mL). Do not append units.

Worked cases, answers included:
Enquiry: What value of measured MFC is listed for "CCOC(=O)c1cc(-c2ccc(C)cc2)[nH]c1NNC(=O)C(C)C" ?
Return: 100

Enquiry: What value of measured MFC is listed for "CCOC(=O)NNc1[nH]c(-c2ccccc2)cc1C(=O)OCC" ?
Return: 25

Continuing:
Enquiry: What value of measured MFC is listed for "CCOC(=O)c1cc(-c2ccc(OC)cc2)[nH]c1NNC(=O)CC" ?
Return: 100

Enquiry: What value of measured MFC is listed for "CCOC(=O)c1cc(-c2ccccc2)[nH]c1NNC(=O)CC" ?
Return: 25

Enquiry: What value of measured MFC is listed for "CCOC(=O)NNc1[nH]c(-c2ccccc2)cc1C(=O)OC" ?
Return: 25

Enquiry: What value of measured MFC is listed for "COCC(=O)NNc1[nH]c(-c2ccccc2)cc1C#N" ?
Return: 25

Enquiry: What value of measured MFC is listed for "COCCC(=O)NNc1[nH]c(-c2ccc(OC)cc2)cc1C(=O)OC" ?
Return: 25

====

# Test system: Pichia kudriavzevii
# EXPERIMENT_NOTES: Antimicrobial activity against Candida krusei by broth microdilution method
# Type: functional
QUANTITY_NAME: log10 MIC (log10 of the value in µg/mL)
// do not treat as linear: log10 of MIC, unit µg/mL

Worked cases, answers included:
Enquiry: What value of measured log10 MIC is listed for "CCCC(=O)NNc1[nH]c(-c2ccc(OC)cc2)cc1C(=O)OCC" ?
Return: 1.70

Enquiry: What value of measured log10 MIC is listed for "COCCC(=O)NNc1[nH]c(-c2ccc(OC)cc2)cc1C#N" ?
Return: 0.49

Enquiry: What value of measured log10 MIC is listed for "COC(=O)c1cc(-c2ccccc2)[nH]c1NNC(C)=O" ?
Return: 1.10

Enquiry: What value of measured log10 MIC is listed for "COc1ccc(-c2cc(C#N)c(NNC(C)=O)[nH]2)cc1" ?
Return: 0.19

Enquiry: What value of measured log10 MIC is listed for "CCOC(=O)NNc1[nH]c(-c2ccccc2)cc1C#N" ?
Return: 0.49

Enquiry: What value of measured log10 MIC is listed for "CCOC(=O)c1cc(-c2ccc(Cl)cc2)[nH]c1NNC(C)=O" ?
Return: 1.40

Enquiry: What value of measured log10 MIC is listed for "CCOC(=O)NNc1[nH]c(-c2ccccc2)cc1C(=O)OCC" ?
Return: 1.10

Let us move to another entry and its log10 MIC.
Enquiry: What value of measured log10 MIC is listed for "C[C@@H]1[C@H](O)[C@@H](C)/C=C/C=C/C=C/C=C/C=C/C=C/C=C/[C@H](O[C@@H]2O[C@H](C)[C@@H](O)[C@H](N)[C@@H]2O)C[C@@H]2O[C@](O)(C[C@@H](O)C[C@@H](O)[C@H](O)CC[C@@H](O)C[C@@H](O)CC(=O)O[C@H]1C)C[C@H](O)[C@H]2C(=O)O" ?
Return: -0.11
